Assign melting point to each entry below.

Q) Value lookup for melting point; key = `CS(=O)(=O)Nc1ccc(CCBr)cc1`
A) 92 to 94 °C

Q) I am curious: what melting point value has been reported for `Cc1cccc(NC(=O)CN2CCN(c3ccccc3)CC2)c1` ?
A) 120 to 121 °C

Q) Fill blank: measured melting point of the compound `CCCCOCCOc1ccc(-c2ccc3c(c2)C=C(C(=O)Nc2ccc([C@@H](O)c4ccccn4)cc2)CCN3C=O)cc1` is ____.
A) 110 to 112 °C

Q) Value lookup for melting point; key = CN1C(=O)C(c2ccc(OC(F)F)cc2)(c2ccc(F)c(CF)c2)N=C1N (stereo unspecified)
A) 70 to 73 °C

Q) Value lookup for melting point; key = `CC(C)(CCc1nnn[nH]1)c1ccc(C(=O)Nc2cn3cc(-n4ccnc4)ccc3n2)cc1`
A) 266 to 267 °C

Q) Need melting point of `CC(C)NC(=S)NS(=O)(=O)c1ccc(S(C)(=O)=O)cc1N` , thanks.
A) 151 to 153 °C

Q) What value of melting point has been reported for the following compound? `O=C(O)Cc1cnc(Cc2ccc(NC(=O)c3ccc(Cl)c(Cl)c3)cc2)n2ccnc12`
A) 185 to 188 °C

Q) Fill in: melting point of `CSc1nc(-c2ccncc2)cc(=O)n1C` is ___
A) 176 to 178 °C

Q) I'd like to know its melting point. The compound in question is COc1ccc(NC(=O)NC2C(=O)Nc3ccccc3N(CCC(C)C)C2=O)cc1 (stereo unspecified)
A) 150 to 152 °C

Q) Consider the compound `O=C1c2c(Br)cccc2-n2cnc(C(=O)n3ccnc3)c2[C@@H]2CCCN12` and give its measured melting point.
A) 215 to 217 °C

Q) What melting point value was documented for this compound, `O=C1CCn2c(-c3cccs3)nc3c(Cl)ccc1c32` ?
A) 252 to 254 °C

Q) So what does the record say about melting point for `N#CNC(=N)CCc1ccccc1Sc1ccccc1CCC(=N)NC#N` ?
A) 188 to 190 °C

Q) Suppose we examine the compound CCCC(c1ccc(C(N)=O)cc1)n1ccnc1 (stereo unspecified) ; what melting point value has been reported?
A) 132 °C

Q) Name the recorded melting point for `Nc1ccc(Oc2cc(F)c(C(F)(F)F)c(Cl)c2)cc1` .
A) 55 to 57 °C

Q) Look at this compound and give its reported melting point. `CC(C)COC(=O)N[C@@H](Cc1ccc2ccccc2c1)C(=O)CSCc1ccco1`
A) 84 to 87 °C

Q) Data request, read-out melting point, for CC(O)c1cc2c(=O)n(NS(C)(=O)=O)c(=O)[nH]c2cc1C(F)(F)F (stereo unspecified)
A) 263 to 268 °C

Q) What does the record list as melting point for `Cc1cn(COCOC(=O)c2ccccc2)c(=O)[nH]c1=O` ?
A) 141 to 143 °C

Q) Requested field: melting point. Item: `NC(=O)c1ccc(NC(=O)CCc2cnoc2-c2ccccc2)cc1`
A) 250 to 251 °C

Q) Which melting point is listed for OC(CN1CCC(C(O)c2ccccc2)CC1)c1ccc(F)cc1 (stereo unspecified) ?
A) 114 to 116 °C

Q) # input compound: `Cc1ccc(C(=O)N[C@H]2CC[C@H](CCN3CCC(c4cccc5c4CCO5)CC3)CC2)cn1` ; wanted: its melting point
A) 202 °C

Q) What measured melting point goes with `CC(C)(C)OC(=O)N1CCC(Cn2cc(S(=O)(=O)c3ccccc3)c3ccccc32)CC1` ?
A) 181 to 182 °C

Reference for the values: a melting point compilation (Tetko et al.; mined from patent text by program, amines drawn as free bases though some values may be those of a salt)
